TARGET OF ASSAY: ovine COX-1 (Ovis aries, UniProt P05979)
Construct: purchased Cayman Chemicals
Sequence (P05979 25-600): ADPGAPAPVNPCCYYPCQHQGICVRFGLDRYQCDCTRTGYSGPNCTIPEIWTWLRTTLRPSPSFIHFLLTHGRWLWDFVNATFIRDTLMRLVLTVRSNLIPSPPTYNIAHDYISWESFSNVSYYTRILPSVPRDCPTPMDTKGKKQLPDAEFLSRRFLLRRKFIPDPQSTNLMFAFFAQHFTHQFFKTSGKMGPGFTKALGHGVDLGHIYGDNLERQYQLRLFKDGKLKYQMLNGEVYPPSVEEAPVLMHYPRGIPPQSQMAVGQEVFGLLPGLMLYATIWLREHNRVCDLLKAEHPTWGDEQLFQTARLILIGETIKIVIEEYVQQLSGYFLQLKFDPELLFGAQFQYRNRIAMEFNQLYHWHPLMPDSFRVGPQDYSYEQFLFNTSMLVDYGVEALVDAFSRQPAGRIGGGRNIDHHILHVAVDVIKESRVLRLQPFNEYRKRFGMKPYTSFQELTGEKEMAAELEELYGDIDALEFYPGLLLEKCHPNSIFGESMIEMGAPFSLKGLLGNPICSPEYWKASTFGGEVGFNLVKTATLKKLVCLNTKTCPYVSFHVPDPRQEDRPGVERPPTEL
MEASUREMENT NOTES: Cyclooxygenase COX-1 inhibition assay (Cayman Chemicals kit)
Assay type: biochemical
CONDITION DESCRIPTION: least squares regression analysis of inhibition vs. concentration; read-out: calculated IC50 for COX-1
RECORDED ENDPOINT: IC50 (µM)

COMPOUND	ENDPOINT UNIT	IC50
C/C=C(/C=O)[C@@H](CC=O)CC(=O)OCCc1ccc(O)cc1 [Oleocanthal (−)]	µM	21.4
CC=C(C=O)C(CC=O)CC(=O)OCCc1ccc(O)cc1 (single isomer, unassigned) [Oleocanthal (+)]	µM	27.9

---

TARGET OF ASSAY: soybean 15-lipoxygenase (Glycine max, UniProt P08170)
Construct: purchased Cayman Chemicals
Sequence (P08170 1-839): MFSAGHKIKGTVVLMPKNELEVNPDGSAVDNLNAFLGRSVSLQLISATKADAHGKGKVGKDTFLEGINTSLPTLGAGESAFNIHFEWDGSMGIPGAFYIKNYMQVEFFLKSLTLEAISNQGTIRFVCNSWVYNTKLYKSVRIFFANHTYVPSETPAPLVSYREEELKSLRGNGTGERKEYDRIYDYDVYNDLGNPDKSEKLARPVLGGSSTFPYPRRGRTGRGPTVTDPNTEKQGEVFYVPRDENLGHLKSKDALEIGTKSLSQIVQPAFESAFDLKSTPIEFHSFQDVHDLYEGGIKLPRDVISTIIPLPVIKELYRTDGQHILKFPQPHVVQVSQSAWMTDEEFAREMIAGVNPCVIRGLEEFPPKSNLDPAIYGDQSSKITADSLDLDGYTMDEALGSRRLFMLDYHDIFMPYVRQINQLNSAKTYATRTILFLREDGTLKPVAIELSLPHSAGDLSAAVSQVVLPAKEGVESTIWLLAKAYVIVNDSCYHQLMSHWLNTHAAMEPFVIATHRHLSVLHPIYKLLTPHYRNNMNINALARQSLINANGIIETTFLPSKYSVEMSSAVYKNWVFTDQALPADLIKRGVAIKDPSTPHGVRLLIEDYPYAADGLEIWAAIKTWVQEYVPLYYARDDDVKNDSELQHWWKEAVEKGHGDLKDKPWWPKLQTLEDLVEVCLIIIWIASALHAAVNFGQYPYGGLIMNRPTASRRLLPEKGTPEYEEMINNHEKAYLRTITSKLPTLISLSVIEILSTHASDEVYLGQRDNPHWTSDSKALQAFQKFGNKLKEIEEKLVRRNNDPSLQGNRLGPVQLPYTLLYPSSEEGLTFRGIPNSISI
MEASUREMENT NOTES: 15-lipoxygenase inhibition assay (Cayman Chemicals kit)
Assay type: biochemical
CONDITION DESCRIPTION: 7 uM; mean ± SEM, three independent experiments; read-out: Percent inhibition of 15-LO
RECORDED ENDPOINT: inhibition at 7 µM (%)

Worked examples follow.
COMPOUND	inhibition at 7 µM [%]
COc1ccc2c(c1)c(CC(=O)O)c(C)n2C(=O)c1ccc(Cl)cc1 [Indomethacin, reference compound]	0.5
CC=C(C=O)C(CC=O)CC(=O)OCCc1ccc(O)cc1 (single isomer, unassigned) [Oleocanthal (+)]	0

A: C/C=C(/C=O)[C@@H](CC=O)CC(=O)OCCc1ccc(O)cc1 [Oleocanthal (−)]
B: O=C(O)/C=C/c1ccc(O)c(O)c1 [Caffeic Acid, caffeic acid, reference compound]
Problem: Which value of inhibition at 7 µM is numerically greater: that of A or that of B ? Response format: the label of the selected entry.
Result: B

---

TARGET OF ASSAY: soybean 15-lipoxygenase (Glycine max, UniProt P08170)
Construct: purchased Cayman Chemicals
MEASUREMENT NOTES: 15-lipoxygenase inhibition assay (Cayman Chemicals kit)
Format: biochemical
CONDITION DESCRIPTION: 25 uM; mean ± SEM, three independent experiments; read-out: Percent inhibition of 15-LO
RECORDED ENDPOINT: inhibition at 25 µM (%)

COMPOUND	TARGET OF ASSAY	RECORDED ENDPOINT	RECORDED MEASUREMENT
COc1ccc2c(c1)c(CC(=O)O)c(C)n2C(=O)c1ccc(Cl)cc1 [Indomethacin, reference compound]	soybean 15-lipoxygenase (Glycine max, UniProt P08170)	inhibition at 25 µM	0.1

A: CC=C(C=O)C(CC=O)CC(=O)OCCc1ccc(O)cc1 (single isomer, unassigned) [Oleocanthal (+)]
B: O=C(O)/C=C/c1ccc(O)c(O)c1 [Caffeic Acid, caffeic acid, reference compound]
C: C/C=C(/C=O)[C@@H](CC=O)CC(=O)OCCc1ccc(O)cc1 [Oleocanthal (−)]
Problem: Order the 3 compounds from highest to lowest inhibition at 25 µM. Answer by listing the labels in the order asked for.
Result: B, A, C

Where do these numbers come from? They come from patent US20090076142A1.
